biological target: human TRPA1 (Homo sapiens); assay: FLIPR Ca2+ assay, reduction of hydrogen peroxide activation of TRPA1; type: cell-based; set-up: expressed in transfected cells; conditions: antagonist 400 μM against 200 μM hydrogen peroxide; read-out: % Reduction of Hydrogen Peroxide TRPA1 Activation
Sequence (O75762 whole entry): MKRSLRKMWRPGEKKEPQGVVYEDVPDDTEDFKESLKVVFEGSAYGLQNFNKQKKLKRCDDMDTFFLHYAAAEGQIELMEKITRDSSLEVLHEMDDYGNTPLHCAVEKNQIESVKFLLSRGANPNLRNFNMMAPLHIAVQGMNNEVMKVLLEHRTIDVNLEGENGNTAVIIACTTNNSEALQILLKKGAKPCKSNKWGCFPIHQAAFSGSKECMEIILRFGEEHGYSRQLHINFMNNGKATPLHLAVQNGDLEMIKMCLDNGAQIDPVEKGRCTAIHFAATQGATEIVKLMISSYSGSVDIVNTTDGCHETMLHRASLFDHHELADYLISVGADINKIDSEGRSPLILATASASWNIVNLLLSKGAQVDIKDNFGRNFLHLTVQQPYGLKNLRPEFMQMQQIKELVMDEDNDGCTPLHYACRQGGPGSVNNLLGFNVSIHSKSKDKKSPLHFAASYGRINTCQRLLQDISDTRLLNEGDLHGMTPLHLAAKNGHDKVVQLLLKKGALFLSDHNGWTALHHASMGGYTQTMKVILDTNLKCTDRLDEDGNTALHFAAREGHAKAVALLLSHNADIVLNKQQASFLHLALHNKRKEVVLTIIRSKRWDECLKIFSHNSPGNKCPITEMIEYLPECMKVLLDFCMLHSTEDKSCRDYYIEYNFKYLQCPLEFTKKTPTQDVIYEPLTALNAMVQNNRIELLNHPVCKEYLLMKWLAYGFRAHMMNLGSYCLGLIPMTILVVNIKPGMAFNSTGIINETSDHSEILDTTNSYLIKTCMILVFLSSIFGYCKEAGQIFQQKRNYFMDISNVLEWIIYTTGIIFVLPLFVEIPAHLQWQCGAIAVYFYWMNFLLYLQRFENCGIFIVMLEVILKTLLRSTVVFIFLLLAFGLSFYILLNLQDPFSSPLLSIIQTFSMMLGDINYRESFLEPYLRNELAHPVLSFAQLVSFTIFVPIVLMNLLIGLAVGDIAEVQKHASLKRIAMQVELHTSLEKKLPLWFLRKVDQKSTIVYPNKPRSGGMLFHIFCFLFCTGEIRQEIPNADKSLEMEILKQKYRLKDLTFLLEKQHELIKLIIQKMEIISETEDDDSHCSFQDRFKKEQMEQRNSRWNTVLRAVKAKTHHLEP
Classification field: fulfilled = inhibition at 400 µM at or over 60%; not fulfilled = inhibition at 400 µM under 60%.

Hello, I need to know if CCCC/C=C/C=C/C=O [trans, trans-2,4-Nonadienal] has measured inhibition at 400 µM not below 60%. Thanks!
fulfilled

API: above_or_equal(metric=inhibition at 400 µM, cutoff=60%) for item CCCC(CCOC(C)=O)SC(C)=O (stereo not drawn) [3-acetylsulfanylhexyl acetate]
not fulfilled

Say whether CCCCC(=O)OC1CC2CCC1(C)C2(C)C (stereo not drawn) [Bornyl Valerate] shows inhibition at 400 µM of 60% or more.
not fulfilled

Check the entry c1ccc(CCCC2CCCO2)cc1 (stereo not drawn) [2-(3-Phenylpropyl) tetrahydrofuran] : does inhibition at 400 µM equal or exceed 60%?
fulfilled

In plain terms: is recorded inhibition at 400 µM at least 60% for CC(O)C(=O)NCCO (stereo not drawn) [N-(2-Hydroxyethyl) lactamide] ?
fulfilled

Answer whether inhibition at 400 µM of CC1=CC(O)CC(C)C2CC(=C(C)C)CC12 (stereo not drawn) is greater than or equal to 60%.
not fulfilled

Form field: inhibition at 400 µM at least 60%? Entry: "C=CCc1cc(OC)c(O)c(OC)c1"
not fulfilled

Record COC(=O)c1ccccc1OC [Methyl 2-methoxy-benzoate] ; criterion: inhibition at 400 µM no lower than 60%. Met?
not fulfilled

Test whether the compound CC1CC(O)CC(C)(C)C1 (stereo not drawn) records inhibition at 400 µM of 60% or higher.
fulfilled

Hello, I need to know if CC(=O)OCCC(C)CCC=C(C)C (stereo not drawn) [Citronellyl acetate] has measured inhibition at 400 µM not below 60%. Thanks!
fulfilled

Quick check, inhibition at 400 µM >= 60%? CC(=O)OC1=C(C)OC(C)C1=O (stereo not drawn) [Strawberry Furanone Acetate, 4-Acetoxy-2,5-dimethyl-3(2H)-furanone]
fulfilled

Would you say "COc1ccccc1C=CC=O" shows inhibition at 400 µM at minimum 60%?
not fulfilled

Reported inhibition at 400 µM reaches at least 60% for CCCC1CC(=O)C=C(C)C1 (stereo not drawn) ?
not fulfilled

Is inhibition at 400 µM for CC(C)C=C(C=O)c1ccccc1 (mixture of isomers) at or above 60%?
not fulfilled

====

Molecular target: human TRPV1 (Homo sapiens, UniProt Q8NER1)
Sequence (Q8NER1 whole entry): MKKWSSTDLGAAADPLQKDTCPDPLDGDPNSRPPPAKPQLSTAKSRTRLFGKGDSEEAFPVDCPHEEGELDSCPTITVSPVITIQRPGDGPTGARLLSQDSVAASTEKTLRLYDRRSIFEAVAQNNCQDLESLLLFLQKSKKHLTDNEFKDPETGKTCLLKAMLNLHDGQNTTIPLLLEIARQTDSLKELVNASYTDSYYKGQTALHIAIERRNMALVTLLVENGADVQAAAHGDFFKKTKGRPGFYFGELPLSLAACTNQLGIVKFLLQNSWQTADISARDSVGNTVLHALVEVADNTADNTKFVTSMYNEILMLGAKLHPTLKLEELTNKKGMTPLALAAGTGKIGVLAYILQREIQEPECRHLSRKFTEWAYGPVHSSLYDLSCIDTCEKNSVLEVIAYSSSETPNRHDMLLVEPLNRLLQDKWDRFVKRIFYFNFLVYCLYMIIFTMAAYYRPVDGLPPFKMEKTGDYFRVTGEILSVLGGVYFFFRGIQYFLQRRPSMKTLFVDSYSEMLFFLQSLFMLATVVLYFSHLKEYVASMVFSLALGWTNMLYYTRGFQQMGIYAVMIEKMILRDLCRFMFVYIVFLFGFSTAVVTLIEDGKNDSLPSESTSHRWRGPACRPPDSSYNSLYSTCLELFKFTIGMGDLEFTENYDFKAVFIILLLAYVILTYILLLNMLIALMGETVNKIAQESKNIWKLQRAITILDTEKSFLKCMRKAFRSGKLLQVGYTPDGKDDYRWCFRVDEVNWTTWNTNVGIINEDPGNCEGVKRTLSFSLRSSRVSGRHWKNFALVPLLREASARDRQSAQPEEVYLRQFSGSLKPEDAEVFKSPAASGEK
Assay: FLIPR Ca2+ assay, reduction of hydrogen peroxide activation of TRPV1
Assay type: cell-based
Set-up: expressed in transfected cells
Conditions: with compound, Dose 1000, 500 uM H2O2
Protocol: Cells were detached with addition of 10 ml of PBS (phosphate buffered saline) by hand shaking gently. Cells were transferred to a 50 ml tube and centrifuged at 850 rpm for 3 minutes to remove PBS. The pelleted cells were re-suspended in 10 ml assay buffer and 90 μl aliquots (˜50,000 cells) per well delivered to a 96-well assay plate containing 10 μl of test compounds (1 mM in assay buffer, […]) or buffer control and incubated at room temperature for 30 minutes.
REPORTED METRIC: Ca++ counts
In your answer, state the number alone without any accompanying words.

What value of Ca++ counts on human TRPV1 (Homo sapiens, UniProt Q8NER1) does CC(C)C(=O)O[C@@H]1C[C@H]2CC[C@]1(C)C2(C)C [Isobornyl Isobutyrate] have?
541

Please state recorded Ca++ counts (tested on human TRPV1 (Homo sapiens, UniProt Q8NER1)) of CC1=CC(=O)C(C(C)C)CC1 [L-Piperiton]
361

API: value(readout=Ca++ counts, system=human TRPV1 (Homo sapiens, UniProt Q8NER1)) for record CC(CC=O)CCCC(C)(C)O (centres unmarked) [Hydroxycitronellal]
627

# returns recorded Ca++ counts (system: human TRPV1 (Homo sapiens, UniProt Q8NER1)) for CC(=O)OC1=C(C)OC(C)C1=O (centres unmarked) [Strawberry Furanone Acetate, 4-Acetoxy-2,5-dimethyl-3(2H)-furanone]
451

# query: Ca++ counts | item CCOc1nccnc1CC [2-Ethoxy-3-ethylpyrazine] | system: human TRPV1 (Homo sapiens, UniProt Q8NER1)
474

Form field - read-out: Ca++ counts; system: human TRPV1 (Homo sapiens, UniProt Q8NER1); submitted item: CC(=O)OC1CC2CCC1(C)C2(C)C (single isomer, unassigned; (-)) [(−)-Bornyl Acetate]
877

Form field: Ca++ counts recorded for COC(=O)c1ccccc1N(C)C [Methyl N,N-Dimethylanthranilate] with human TRPV1 (Homo sapiens, UniProt Q8NER1) (enter value)
451

Reported Ca++ counts for human TRPV1 (Homo sapiens, UniProt Q8NER1), given CC(C)=CCC/C(C)=C/CC1CCCC1=O (centres unmarked) [Apritone] ?
66

====

target: human TRPV1 (Homo sapiens, UniProt Q8NER1); assay: FLIPR Ca2+ assay, reduction of hydrogen peroxide activation of TRPV1; type: cell-based; parameters: expressed in transfected cells; conditions: with compound, Dose 4000, 500 uM H2O2
Quick rule for you: Ca++ counts at 200 or higher means true (1), lower means false (0).

Determine whether this compound has Ca++ counts no lower than 200: "CCCN(CCC)CCC"
true (1)

Given CCC(=O)OCCOc1ccccc1 [Phenoxyethyl Propionate] , state whether its Ca++ counts is at least 200.
true (1)

Record CCCCCC1=C(C)CCC1=O [Dihydrojasmone] ; criterion: Ca++ counts no lower than 200. Met?
false (0)

Identify whether the reported Ca++ counts of the following compound is 200 or greater: CC(C)=CC1CC(C)CCO1 (stereo not drawn)
true (1)

Threshold query (Ca++ counts >= 200) on CCCCCC(CC)OC(C)=O (stereo not drawn) [3-Octyl Acetate]
false (0)

# bool: Ca++ counts of CCC(C)COC(=O)CC(C)C (stereo not drawn) [2-Methylbutyl isovalerate] >= 200
true (1)

====

molecular target: human TRPA1 (Homo sapiens); assay: FLIPR Ca2+ assay, reduction of hydrogen peroxide activation of TRPA1; assay type: cell-based; parameters: expressed in transfected cells; conditions: compound 100 μM against 200 μM hydrogen peroxide; Sets 1-4
Exercise: for every item that follows, state its recorded Average Ca++ Counts.
The answer is to be given in Counts; state only the numeric part.

Give the measured Average Ca++ Counts of "C=C(C)OC(C)=O" .
2860.5

Looking for the measured Average Ca++ Counts of CCOC(=O)CC(C)=O [ethyl acetoacetate] , can you help?
3314.5

Quick one: Average Ca++ Counts of "CCC(=O)c1nccs1" ?
4875.0

What measured Average Ca++ Counts goes with "CC(C)CCO" ?
3778.0

What value of Average Ca++ Counts has been recorded for this entry: "CC(C)OC(=O)C(C)C"
3392.5

Which value of Average Ca++ Counts has been reported for O=C(Oc1ccccc1)c1ccccc1O [phenyl salicylate] in the records?
2893.5

I'd like to know its Average Ca++ Counts. The compound in question is "CC1SCCS1"
2402.0

Which Average Ca++ Counts value is on record for CCCCC/C=C\C/C=C\CCCCCCCC(=O)OC [methyl linoleate] ?
3363.5

Given "CCc1ccccc1S" , state its recorded Average Ca++ Counts.
4808.5

Requested field: Average Ca++ Counts. Item: CC(C)COC(=O)C(C)C [isobutyl isobutyrate]
3383.0

Reported Average Ca++ Counts, compound CCCCCCCCCCCCCCCCCC(=O)OCC(O)CO (racemic) : ____
3131.0

====

molecular target: human TRPA1 (Homo sapiens); assay: FLIPR Ca2+ assay, reduction of hydrogen peroxide activation of TRPA1; assay type: cell-based; set-up: expressed in transfected cells; details: read-out: % Reduction of Hydrogen Peroxide TRPA1 Activation
Assignment: determine reported inhibition at 100 µM for the given compounds.
Answer format: number, then unit.

Record request: inhibition at 100 µM value, item Cc1ccc(C(C)C)cc1O [carvacrol]
50.8%

Reported inhibition at 100 µM, compound COC(=O)c1ccccc1 [methylbenzoate] : ____
56.2%

// returns reported inhibition at 100 µM for input CC1=C(O)C(=O)CC1.O [hydrate]
60.6%

Consider the compound CCCCCCCCCC(C)=O [2-undecanone] and give its measured inhibition at 100 µM.
56.8%

Dear colleague, I am looking for the recorded inhibition at 100 µM of the following compound: CCCCOC(=O)c1ccc(O)cc1 [butyl 4-hydroxybenzoate]
96.1%

Please give the measured inhibition at 100 µM for this compound: O=C(CCl)c1ccccc1 [2-chloroacetophenone]
88.7%

So what does the record say about inhibition at 100 µM for CC(=O)CCc1ccc2c(c1)OCO2 [4-benzo[1,3]dioxol-5-yl-butan-2-one] ?
48.7%

Endpoint output: inhibition at 100 µM of OCc1ccco1 [furfuryl alcohol] . Value?
47.3%

Suppose we examine the compound c1ccc(SSc2ccccc2)cc1 [diphenyl disulfide] ; what inhibition at 100 µM value has been reported?
81.1%

These entries and their values trace back to patent US20130315843A1.
